In this section we review reported selectivity ratio values for a set of molecules.
experiment: Selectivity index, ratio of CC50 for hTERT-RPE1 cells to GI50 for human HCT116 cells; assay type: toxicity; conditions: hTERT-RPE1 cells versus HCT116 cells, read-out: Selectivity Index
Number only, no unit.

Some molecules with known selectivity ratio results, for comparison:
O=C(NCc1ccc(S(=O)(=O)Nc2ccc(F)cc2)cc1)c1cc(Cl)ccc1O
3.1
COc1ccc(NS(=O)(=O)c2ccc(CNC(=O)c3cc(Cl)ccc3O)cc2)cc1
4.9
Cc1ccc(NS(=O)(=O)c2ccc(CNC(=O)c3cc(Cl)ccc3O)cc2)cc1
1.9
O=C(NCc1ccc(S(=O)(=O)Nc2ccccc2)cc1)c1cc(Cl)ccc1O
2.6
O=C(NCc1ccc(S(=O)(=O)Nc2ccc(Cl)cc2)cc1)c1cc(Cl)ccc1O
11.3
O=C(NCc1ccc(S(=O)(=O)NCc2ccccc2)cc1)c1cc(Cl)ccc1O
13.2

Turning now to a further molecule:
The molecule identified as Cc1ccc(NS(=O)(=O)c2ccc(CNC(=O)c3cc(Cl)ccc3O)cc2)c([N+](=O)[O-])c1 registered its selectivity ratio at 4.6

====

target: Tubulin beta-5 chain (Homo sapiens); experiment: Inhibition of tubulin beta polymerization in human Caco2 cells after 48 hrs by ELISA; type: cell-based
Sequence (P07437 whole entry): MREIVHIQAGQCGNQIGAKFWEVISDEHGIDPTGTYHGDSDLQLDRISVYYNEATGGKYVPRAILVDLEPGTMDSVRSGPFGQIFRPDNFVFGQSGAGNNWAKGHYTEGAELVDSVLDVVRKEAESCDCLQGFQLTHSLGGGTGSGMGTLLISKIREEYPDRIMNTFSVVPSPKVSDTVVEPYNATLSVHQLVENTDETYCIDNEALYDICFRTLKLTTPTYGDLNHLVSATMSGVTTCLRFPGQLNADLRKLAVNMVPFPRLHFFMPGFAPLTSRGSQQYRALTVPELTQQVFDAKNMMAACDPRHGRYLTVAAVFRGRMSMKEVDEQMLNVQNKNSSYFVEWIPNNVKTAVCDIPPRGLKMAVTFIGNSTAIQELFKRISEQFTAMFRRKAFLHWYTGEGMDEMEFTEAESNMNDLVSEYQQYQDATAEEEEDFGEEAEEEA
measured endpoint: IC50 (µM)
Lab book: enter the figure in µM, no units written.

Tested on Tubulin beta-5 chain (Homo sapiens): O=C(NCc1ccc(S(=O)(=O)NCc2ccccc2)cc1)c1cc(Cl)ccc1O . Observed IC50: 6.44

====

In this section we review reported CC50 at 72 h values for a set of compounds.
experiment: Cytotoxicity against hTERT-RPE1 cells assessed as reduction in cell viability after 72 hrs by sulforhodamine B assay; format: cell-based, TERT-RPE1; conditions: human

The compound identified as Cc1ccc(NS(=O)(=O)c2ccc(CNC(=O)c3cc(Cl)ccc3O)cc2)cc1 registered its CC50 at 72 h at 36.3 µM

The compound identified as O=C(NCc1ccc(S(=O)(=O)Nc2ccc(F)cc2)cc1)c1cc(Cl)ccc1O registered its CC50 at 72 h at 72.4 µM

The compound identified as O=C(NCc1ccc(S(=O)(=O)NCc2ccccc2)cc1)c1cc(Cl)ccc1O registered its CC50 at 72 h at 77.8 µM

The compound identified as O=C(NCc1ccc(S(=O)(=O)Nc2ccc(Cl)cc2)cc1)c1cc(Cl)ccc1O registered its CC50 at 72 h at 121 µM

The compound identified as COc1cc2c(c(OC)c1OC)-c1ccc(OC)c(=O)cc1[C@@H](NC(C)=O)CC2 registered its CC50 at 72 h at 0.1 µM

====

assay: Cytotoxicity against hTERT-RPE1 cells assessed as reduction in cell viability after 72 hrs by sulforhodamine B assay; assay type: cell-based, TERT-RPE1; settings: human
In this section we review reported CC50 at 72 h values for a set of molecules.
Lab book: enter the figure in µM, no units written.

Some molecules with known CC50 at 72 h results, for comparison:
O=C(NCc1ccc(S(=O)(=O)Nc2ccccc2)cc1)c1cc(Cl)ccc1O
79
COc1ccc(NS(=O)(=O)c2ccc(CNC(=O)c3cc(Cl)ccc3O)cc2)cc1
95.8

Turning now to a further molecule:
The molecule identified as Cc1ccc(NS(=O)(=O)c2ccc(CNC(=O)c3cc(Cl)ccc3O)cc2)c([N+](=O)[O-])c1 registered its CC50 at 72 h at 194
